Data credit: patent US20110105397A1

- Assay protocol: Nonclinical pharmacokinetics in cynomolgus monkeys
- Measurement conditions: cynomolgus monkey, in vivo, monkeys, two-compartment analysis; read-out: alpha-phase half-life (t1/2 alpha)
Measurement name: half-life

>>> obs_value("H-TKFTLSLDVPTNIMNLLFNIAKAKNLRAQAAANAHLMAQI-NH2 [SEQ ID NO: 1]")
"< 5 min"

* * *

- Assay protocol: Nonclinical pharmacokinetics in cynomolgus monkeys
- Measurement conditions: male, cynomolgus monkey, in vivo, iv, 33.3 ng/kg/min, cyno IV infusion 3 hours, M, 33.3 ng/kg/min; read-out: t1/2 terminal
Measurement name: half-life

>>> obs_value("H-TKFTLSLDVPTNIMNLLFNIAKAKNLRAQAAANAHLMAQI-NH2 [SEQ ID NO: 1]")
"26 min"
